IC50 values for the compounds below.
- measuredOn: Recombinant human MAO-A (Homo sapiens)
- Sequence (P21397 whole entry): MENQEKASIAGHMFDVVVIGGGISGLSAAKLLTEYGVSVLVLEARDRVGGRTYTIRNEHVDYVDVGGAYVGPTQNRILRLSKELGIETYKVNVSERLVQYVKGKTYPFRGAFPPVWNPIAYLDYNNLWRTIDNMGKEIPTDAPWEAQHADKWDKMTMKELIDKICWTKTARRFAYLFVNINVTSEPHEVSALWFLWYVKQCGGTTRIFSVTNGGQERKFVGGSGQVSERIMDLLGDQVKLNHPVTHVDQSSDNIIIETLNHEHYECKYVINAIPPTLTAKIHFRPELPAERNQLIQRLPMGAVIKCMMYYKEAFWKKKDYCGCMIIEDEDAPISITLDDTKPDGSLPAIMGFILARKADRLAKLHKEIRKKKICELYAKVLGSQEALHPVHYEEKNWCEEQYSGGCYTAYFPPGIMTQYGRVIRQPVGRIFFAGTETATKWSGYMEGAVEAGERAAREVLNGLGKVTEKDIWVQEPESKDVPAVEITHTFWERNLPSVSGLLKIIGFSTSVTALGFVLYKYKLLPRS
- procedureSummary: In vitro MAO-A inhibition assay (kynuramine, fluorescence)
- protocolConditions: kynuramine substrate, mean ± S.D. of three independent experiments
endpoint: IC50 (nM)

smilesNotation	unitsLabel	reported
N#Cc1ccc(/C=C/c2ccc(O)cc2)cc1	nM	2010
Oc1ccc(/C=C/c2ccc(Cl)cc2Cl)cc1Cl	nM	2020
Oc1ccc(/C=C/c2ccc(Cl)cc2Cl)cc1	nM	1790
COc1ccc(/C=C/c2ccc(O)cc2)cc1	nM	2710
Oc1ccc(/C=C/c2ccccc2)cc1Cl	nM	3060
Oc1ccc(/C=C/c2ccc(C(F)(F)F)cc2)cc1	nM	9770

* * *

- measuredOn: hCA VII (Homo sapiens)
- Sequence (P43166 whole entry): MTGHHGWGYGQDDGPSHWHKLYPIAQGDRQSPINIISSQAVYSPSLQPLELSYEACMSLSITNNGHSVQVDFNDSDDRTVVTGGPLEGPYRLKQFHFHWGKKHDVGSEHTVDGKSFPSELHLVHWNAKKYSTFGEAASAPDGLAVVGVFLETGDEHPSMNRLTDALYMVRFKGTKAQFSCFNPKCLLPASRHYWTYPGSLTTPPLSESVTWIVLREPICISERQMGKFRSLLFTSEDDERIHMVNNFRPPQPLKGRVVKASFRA

molecule	relationQualifier	Ki [µM]
Oc1ccc(/C=C/c2ccc(C(F)(F)F)cc2)cc1 [Compound 5]	>	100
Oc1ccc(/C=C/c2ccc(C(F)(F)F)cc2)cc1Cl [Compound 4]	=	0.7
Oc1ccc(C=Cc2cc(O)cc(O)c2)cc1 [RSV, 3,4′,5-trihydroxystilbene, reference compound]	=	4.3

* * *

Quick record: Ki, hCA XII (Homo sapiens).

smilesNotation	measuredOn	Ki
COc1ccc(/C=C/c2ccc(O)cc2)cc1	hCA XII (Homo sapiens)	> 100 µM
N#Cc1ccc(/C=C/c2ccc(O)cc2)cc1	hCA XII (Homo sapiens)	> 100 µM
Oc1ccc(/C=C/c2ccc(C(F)(F)F)cc2)cc1	hCA XII (Homo sapiens)	> 100 µM
